The reported numbers originate from the NIST ThermoML archive (doi:10.1021/je100652b).

STATED CONDITIONS: 298.15 K; 101.33 kPa; Liquid; Sing-around technique in a fixed-path interferometer
MEASURED METRIC: speed of sound (m/s)

>>> df
                              molecule  observed
0                         Cc1ccc(C)cc1      1314
1                               CCCCCO      1274
2                           CCc1ccccc1      1319
3                            Cc1ccccc1      1304
4                             CCCCCCCO      1330
5                                CCCCO      1244
6  C=C(C)C(=O)OC [methyl methacrylate]      1182
7                             C1CCCCC1      1254
8                             c1ccccc1      1300
